- EXPERIMENT_DESCRIPTION: Inhibition of TNF alpha converting enzyme (TACE, ADAM17)
ASSAY_ENDPOINT: pIC50
On this scale, pIC50 is minus log10 of a concentration expressed in M (mol/L).

## Input Which value of pIC50 has been reported for "O=C(NO)[C@H]1C[C@@H](O)CCN1S(=O)(=O)c1ccc(OCc2ccccc2Cl)cc1" in the records?
## Output 7.44

----------
Sequence of the target: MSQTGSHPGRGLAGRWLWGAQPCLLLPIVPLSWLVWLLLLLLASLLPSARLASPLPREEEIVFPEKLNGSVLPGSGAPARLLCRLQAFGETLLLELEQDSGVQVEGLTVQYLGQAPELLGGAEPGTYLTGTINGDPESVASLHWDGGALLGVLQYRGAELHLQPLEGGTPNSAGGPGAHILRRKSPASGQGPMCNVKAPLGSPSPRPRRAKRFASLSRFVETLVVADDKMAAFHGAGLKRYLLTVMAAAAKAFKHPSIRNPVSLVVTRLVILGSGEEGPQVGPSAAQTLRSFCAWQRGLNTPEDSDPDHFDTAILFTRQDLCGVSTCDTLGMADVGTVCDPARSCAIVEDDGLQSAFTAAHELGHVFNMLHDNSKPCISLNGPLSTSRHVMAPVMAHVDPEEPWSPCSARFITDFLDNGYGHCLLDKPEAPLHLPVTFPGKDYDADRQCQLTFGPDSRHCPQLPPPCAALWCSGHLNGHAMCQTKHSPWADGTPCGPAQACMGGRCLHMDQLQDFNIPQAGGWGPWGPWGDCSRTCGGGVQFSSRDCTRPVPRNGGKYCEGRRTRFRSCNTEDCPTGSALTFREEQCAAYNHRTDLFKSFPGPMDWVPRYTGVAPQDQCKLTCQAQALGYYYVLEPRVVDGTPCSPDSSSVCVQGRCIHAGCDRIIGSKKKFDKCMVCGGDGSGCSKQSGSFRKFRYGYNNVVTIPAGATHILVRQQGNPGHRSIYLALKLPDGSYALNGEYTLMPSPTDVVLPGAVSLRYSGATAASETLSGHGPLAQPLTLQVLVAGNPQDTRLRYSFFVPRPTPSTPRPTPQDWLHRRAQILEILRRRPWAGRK
Recorded measurements of IC50, one per entry

Consider the reported IC50 for these molecules:
{"SMILES_NOTATION": "O=C(NO)[C@@]1(O)COCC[C@H]1S(=O)(=O)c1ccc(OCc2ccc(Cl)cc2)cc1", "ENDPOINT_VALUE": "0.33 µM"}
{"SMILES_NOTATION": "Cc1cccc(Oc2ccc(S(=O)(=O)[C@@H]3CCOC[C@]3(O)C(=O)NO)cc2)c1", "ENDPOINT_VALUE": "> 1 µM"}
{"SMILES_NOTATION": "Cc1cccc(C)c1COc1ccc(S(=O)(=O)[C@@H]2CCOC[C@]2(O)C(=O)NO)cc1", "ENDPOINT_VALUE": "> 1 µM"}
{"SMILES_NOTATION": "O=C(NO)[C@@]1(O)COCC[C@H]1S(=O)(=O)c1ccc(OCc2cc(Cl)ccc2Cl)cc1", "ENDPOINT_VALUE": "0.087 µM"}
{"SMILES_NOTATION": "Cc1ccccc1-c1ccc(S(=O)(=O)[C@@H]2CCOC[C@]2(O)C(=O)NO)cc1", "ENDPOINT_VALUE": "> 1 µM"}
{"SMILES_NOTATION": "O=C(NO)[C@@]1(O)COCC[C@H]1S(=O)(=O)c1ccc(OCc2cccc(Cl)c2)cc1", "ENDPOINT_VALUE": "> 1 µM"}
{"SMILES_NOTATION": "Cc1ccc(-c2ccc(S(=O)(=O)[C@@H]3CCOC[C@]3(O)C(=O)NO)cc2)cc1", "ENDPOINT_VALUE": "> 1 µM"}
{"SMILES_NOTATION": "Cc1cccc(COc2ccc(S(=O)(=O)[C@@H]3CCOC[C@]3(O)C(=O)NO)cc2)c1", "ENDPOINT_VALUE": "> 1 µM"}

## Input I have this molecule here, "O=C(NO)[C@@]1(O)COCC[C@H]1S(=O)(=O)c1ccc(OCc2c(Cl)cccc2Cl)cc1" , and I need its recorded IC50.
## Output > 1 µM
